- Tested on: DENV2 protease replicon
- Experiment description: DENV2 protease replicon assay
- Format: cell-based
- Details: lowest concentration with observed activity in replicon assay
Residues, ends and D or L forms follow the SMILES beside them.
Value kind: Replicon activity [μM] (1) (µM)

Compound | Assay target | Recorded number
CCCCCCCCCCCCCCCCNC(=O)[C@H](CCCCN)NC(=O)[C@H](CCC(N)=O)NC(=O)[C@H](C)NC(=O)[C@H](CCCNC(=N)N)NC(=O)CCCCCCCCCCCCCCC [C16-RAQK-C16] (HELM PEPTIDE1{[CCCCCCCCCCCCCCCC(=O)[*:2]].R.A.Q.K.[CCCCCCCCCCCCCCCCN[*:1]]}$$$$V2.0) | DENV2 protease replicon | 10.0
CCCCCCCCCCCCNC(=O)[C@H](CCCCN)NC(=O)[C@H](CCCCN)NC(=O)[C@H](CCCCN)NC(=O)[C@H](CC(C)C)NC(=O)CCCCCCCCCCC [C12-LKKK-C12] (HELM PEPTIDE1{[CCCCCCCCCCCC(=O)[*:2]].L.K.K.K.[CCCCCCCCCCCCN[*:1]]}$$$$V2.0) | DENV2 protease replicon | 0.1
CCCCCCCCCCCCCCCCNC(=O)[C@H](CCCCN)NC(=O)CNC(=O)CNC(=O)[C@H](CCCCN)NC(=O)CCCCCCCCCCCCCCC [C16-KGGK-C16, C15H31CO-KGGK-NH—C16H33] (HELM PEPTIDE1{[CCCCCCCCCCCCCCCC(=O)[*:2]].K.G.G.K.[CCCCCCCCCCCCCCCCN[*:1]]}$$$$V2.0) | DENV2 protease replicon | 0.3
CCCCCCCCCCCCCCCCNC(=O)[C@H](CCCCN)NC(=O)CNC(=O)[C@H](CCCCN)NC(=O)CCCCCCCCCCCCCCC [C16-KGK-C16, C15H31CO-KGK-NH—C16H33] | DENV2 protease replicon | 1.0

---

- Assay target: trypsin (Bos taurus)
- Sequence (P00760 24-246): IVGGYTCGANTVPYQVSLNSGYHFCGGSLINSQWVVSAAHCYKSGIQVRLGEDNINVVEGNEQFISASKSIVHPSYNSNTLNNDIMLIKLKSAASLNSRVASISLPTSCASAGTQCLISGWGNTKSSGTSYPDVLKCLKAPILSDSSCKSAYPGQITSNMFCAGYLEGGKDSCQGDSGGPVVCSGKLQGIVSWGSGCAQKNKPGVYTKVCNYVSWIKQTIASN
Residues, ends and D or L forms follow the SMILES beside them.
The label is 1 for Ki below 40 µM and 0 for Ki equal to or exceeding 40 µM.

Molecule | Answer label
CCCCCCCCCCCCCCCCNC(=O)[C@H](CCCCN)NC(=O)[C@H](CCCCN)NC(=O)CCCCCCCCCCCCCCC [C16-KK-C16, C15H31CO-KK-NH—C16H33] | 0
CCCCCCCCCCCCCCCCNC(=O)[C@H](CCCCN)NC(=O)CNC(=O)[C@H](CCCCN)NC(=O)CCCCCCCCCCCCCCC [C16-KGK-C16, C15H31CO-KGK-NH—C16H33] | 0
CCCCCCCCCCCCCCCCNC(=O)[C@H](CCCCN)NC(=O)CNC(=O)CNC(=O)CNC(=O)[C@H](CCCCN)NC(=O)CCCCCCCCCCCCCCC [C16-KGGGK-C16, C15H31CO-KGGGK-NH—C16H33] (HELM PEPTIDE1{[CCCCCCCCCCCCCCCC(=O)[*:2]].K.G.G.G.K.[CCCCCCCCCCCCCCCCN[*:1]]}$$$$V2.0) | 1
CCCCCCCCCCCCCCCCNC(=O)[C@H](CCCCN)NC(=O)[C@H](C)NC(=O)[C@H](CCCCN)NC(=O)CCCCCCCCCCCCCCC | 1

---

Reported activity at 40 µM values for a set of compounds
- Assay target: human furin (Homo sapiens, UniProt P09958)
- Sequence (P09958 108-794): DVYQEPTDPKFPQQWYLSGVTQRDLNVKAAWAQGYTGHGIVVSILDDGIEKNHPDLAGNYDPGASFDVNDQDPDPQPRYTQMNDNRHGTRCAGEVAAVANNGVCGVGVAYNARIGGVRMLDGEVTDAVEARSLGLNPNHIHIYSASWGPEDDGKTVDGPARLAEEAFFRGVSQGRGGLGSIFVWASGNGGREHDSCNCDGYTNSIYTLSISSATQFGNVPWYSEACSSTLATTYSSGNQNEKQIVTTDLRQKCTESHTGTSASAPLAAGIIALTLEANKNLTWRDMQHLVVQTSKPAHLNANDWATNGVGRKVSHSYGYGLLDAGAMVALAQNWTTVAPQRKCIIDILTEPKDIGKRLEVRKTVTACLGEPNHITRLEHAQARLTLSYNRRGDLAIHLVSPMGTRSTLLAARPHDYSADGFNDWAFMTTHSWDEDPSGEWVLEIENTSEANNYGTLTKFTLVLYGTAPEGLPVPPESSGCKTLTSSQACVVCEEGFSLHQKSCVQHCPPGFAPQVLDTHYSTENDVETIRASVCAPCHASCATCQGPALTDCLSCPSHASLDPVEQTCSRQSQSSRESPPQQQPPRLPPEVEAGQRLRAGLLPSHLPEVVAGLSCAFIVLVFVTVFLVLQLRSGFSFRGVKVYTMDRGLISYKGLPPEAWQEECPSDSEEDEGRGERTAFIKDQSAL
- Experiment description: Human furin inhibition, hydrolysis of Ac-RVRR-MCA
- Assay type: biochemical
- Details: 40 μM inhibitor, 36.5° C.
Residues, ends and D or L forms follow the SMILES beside them.

Compound | Assay target | activity at 40 µM, %
CCCCCCCCCCCCCCCCNC(=O)[C@H](CCCCN)NC(=O)[C@H](C)NC(=O)[C@H](C)NC(=O)[C@H](C)NC(=O)[C@H](CCCCN)NC(=O)CCCCCCCCCCCCCCC [C16-KAAAK-C16] (HELM PEPTIDE1{[CCCCCCCCCCCCCCCC(=O)[*:2]].K.A.A.A.K.[CCCCCCCCCCCCCCCCN[*:1]]}$$$$V2.0) | human furin (Homo sapiens, UniProt P09958) | 0
CCCCCCCCCCCCCCCCNC(=O)[C@H](CCCCN)NC(=O)CNC(=O)CNC(=O)CNC(=O)CNC(=O)[C@H](CCCCN)NC(=O)CCCCCCCCCCCCCCC [C16KG4KC16] (HELM PEPTIDE1{[CCCCCCCCCCCCCCCC(=O)[*:2]].K.G.G.G.G.K.[CCCCCCCCCCCCCCCCN[*:1]]}$$$$V2.0) | human furin (Homo sapiens, UniProt P09958) | 0
CCCCCCCCCCCCCCCCNC(=O)[C@H](CCCCN)NC(=O)CNC(=O)CNC(=O)CNC(=O)[C@H](CCCCN)NC(=O)CCCCCCCCCCCCCCC [C16-KGGGK-C16, C15H31CO-KGGGK-NH—C16H33] (HELM PEPTIDE1{[CCCCCCCCCCCCCCCC(=O)[*:2]].K.G.G.G.K.[CCCCCCCCCCCCCCCCN[*:1]]}$$$$V2.0) | human furin (Homo sapiens, UniProt P09958) | 0
CCCCCCCCCCCCCCCCNC(=O)[C@H](CCCCN)NC(=O)[C@H](C)NC(=O)[C@H](CCCCN)NC(=O)CCCCCCCCCCCCCCC | human furin (Homo sapiens, UniProt P09958) | 0
CCCCCCCCCCCCCCCCNC(=O)[C@H](CCCCN)NC(=O)CNC(=O)CNC(=O)[C@H](CCCCN)NC(=O)CCCCCCCCCCCCCCC [C16-KGGK-C16, C15H31CO-KGGK-NH—C16H33] (HELM PEPTIDE1{[CCCCCCCCCCCCCCCC(=O)[*:2]].K.G.G.K.[CCCCCCCCCCCCCCCCN[*:1]]}$$$$V2.0) | human furin (Homo sapiens, UniProt P09958) | 3
CCCCCCCCCCCCCCCCNC(=O)[C@H](CCCCN)NC(=O)[C@H](C)NC(=O)[C@H](C)NC(=O)[C@H](CCCCN)NC(=O)CCCCCCCCCCCCCCC [C16-KAAK-C16] (HELM PEPTIDE1{[CCCCCCCCCCCCCCCC(=O)[*:2]].K.A.A.K.[CCCCCCCCCCCCCCCCN[*:1]]}$$$$V2.0) | human furin (Homo sapiens, UniProt P09958) | 3
CCCCCCCCCCCCCCCCNC(=O)[C@H](CCCCN)NC(=O)CNC(=O)[C@H](CCCCN)NC(=O)CCCCCCCCCCCCCCC [C16-KGK-C16, C15H31CO-KGK-NH—C16H33] | human furin (Homo sapiens, UniProt P09958) | 0
CCCCCCCCCCCCCCCCNC(=O)[C@H](CCCCN)NC(=O)[C@H](C)NC(=O)[C@H](C)NC(=O)[C@H](C)NC(=O)[C@H](C)NC(=O)[C@H](CCCCN)NC(=O)CCCCCCCCCCCCCCC [C16-KAAAAK-C16] (HELM PEPTIDE1{[CCCCCCCCCCCCCCCC(=O)[*:2]].K.A.A.A.A.K.[CCCCCCCCCCCCCCCCN[*:1]]}$$$$V2.0) | human furin (Homo sapiens, UniProt P09958) | 0

---

- Assay target: UniProt P00734
- Experiment description: Thrombin inhibition, fluorimetric enzyme assay
- Type: biochemical
- Details: 15 μM inhibitor, 36.5° C.; read-out: Residual Activity (%) Thrombin
Residues, ends and D or L forms follow the SMILES beside them.
Measured remaining activity at 15 µM values are reported for all entries that follow.
Value kind: remaining activity at 15 µM (%)

Molecule | Recorded number
CCCCCCCCCCCCCCCCNC(=O)[C@H](CCCCN)NC(=O)CNC(=O)[C@H](CCCCN)NC(=O)CCCCCCCCCCCCCCC [C16-KGK-C16, C15H31CO-KGK-NH—C16H33] | 75
CCCCCCCCCCCCCCCCNC(=O)[C@H](CCCCN)NC(=O)[C@H](C)NC(=O)[C@H](CCCCN)NC(=O)CCCCCCCCCCCCCCC | 80
CCCCCCCCCCCCCCCCNC(=O)[C@H](CCCCN)NC(=O)[C@H](CCCCN)NC(=O)CCCCCCCCCCCCCCC [C16-KK-C16, C15H31CO-KK-NH—C16H33] | 62
CCCCCCCCCCCCCCCCNC(=O)[C@H](CCCCN)NC(=O)[C@H](C)NC(=O)[C@H](C)NC(=O)[C@H](CCCCN)NC(=O)CCCCCCCCCCCCCCC [C16-KAAK-C16] (HELM PEPTIDE1{[CCCCCCCCCCCCCCCC(=O)[*:2]].K.A.A.K.[CCCCCCCCCCCCCCCCN[*:1]]}$$$$V2.0) | 80
